molecular target: Luciferin 4-monooxygenase (Photinus pyralis); test: firefly luciferase inhibitors, HSP90 counter-screen, confirmation, artefact control for HSP90 inhibitor project, biochemical, luminescence, triplicate (AID 1847); conditions: purified native firefly luciferase, at 5.9 µM, active compounds read high;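 also: 0% = DMSO with luciferase and 100% = wells lacking luciferase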
The whole screen tested about 2,300 compounds, of which about 1,100 (48%) were called active. So high a share suggests a set chosen from earlier hits. Only a sample is shown.

[
  {
    "compound": "CCOc1ccc(OCc2cccc(C(=O)N(CC)CC)c2)cc1",
    "study-target": "Luciferin 4-monooxygenase (Photinus pyralis)",
    "inhibition / %": 22.5
  },
  {
    "compound": "Clc1ccc2nc(CSc3ccccc3)cn2c1",
    "study-target": "Luciferin 4-monooxygenase (Photinus pyralis)",
    "inhibition / %": 53
  },
  {
    "compound": "O=C1CCC([N+](=O)[O-])C(c2ccccc2Br)N1 (centres undefined)",
    "study-target": "Luciferin 4-monooxygenase (Photinus pyralis)",
    "inhibition / %": -7.7
  },
  {
    "compound": "COc1ccc(-c2nc(-c3ccccc3)no2)c(OC)c1",
    "study-target": "Luciferin 4-monooxygenase (Photinus pyralis)",
    "inhibition / %": 81.7
  },
  {
    "compound": "COc1ccc(-c2cn3ccc(C)cc3n2)cc1",
    "study-target": "Luciferin 4-monooxygenase (Photinus pyralis)",
    "inhibition / %": 69.7
  },
  {
    "compound": "Cc1ccc(C(=O)CSc2ccccc2C(=O)O)cc1",
    "study-target": "Luciferin 4-monooxygenase (Photinus pyralis)",
    "inhibition / %": -0.87
  },
  {
    "compound": "CN(CCO)c1ccc(/C=N/Nc2nncc3ccccc23)cc1",
    "study-target": "Luciferin 4-monooxygenase (Photinus pyralis)",
    "inhibition / %": 84.2
  },
  {
    "compound": "COc1ccc(Cl)cc1NC(=O)Cn1nc(-c2ccc(C)cc2)n(C)c1=S",
    "study-target": "Luciferin 4-monooxygenase (Photinus pyralis)",
    "inhibition / %": -10.3
  },
  {
    "compound": "c1c2c(cc3sc(N4CCCCC4)nc13)OCCO2",
    "study-target": "Luciferin 4-monooxygenase (Photinus pyralis)",
    "inhibition / %": 80
  },
  {
    "compound": "COc1cc(C(=O)NN(CCC#N)C2=NS(=O)(=O)c3ccccc32)cc(OC)c1OC",
    "study-target": "Luciferin 4-monooxygenase (Photinus pyralis)",
    "inhibition / %": -6.77
  },
  {
    "compound": "Cc1ccc(C(=O)COC(=O)c2cccc(N3C(=O)c4c(C)nc5ccccc5c4C3=O)c2)cc1C",
    "study-target": "Luciferin 4-monooxygenase (Photinus pyralis)",
    "inhibition / %": -20.1
  },
  {
    "compound": "COc1ccc(-n2nnnc2-c2nc3ccccc3s2)cc1",
    "study-target": "Luciferin 4-monooxygenase (Photinus pyralis)",
    "inhibition / %": 52.3
  },
  {
    "compound": "O=C(CN1C(=O)c2ccccc2S1(=O)=O)N1CCc2ccccc21",
    "study-target": "Luciferin 4-monooxygenase (Photinus pyralis)",
    "inhibition / %": -9.57
  },
  {
    "compound": "O=c1oc(/C=C/c2ccccc2)nc2ccccc12",
    "study-target": "Luciferin 4-monooxygenase (Photinus pyralis)",
    "inhibition / %": -16.5
  },
  {
    "compound": "O=C(Nc1ccc2c(c1)OCCO2)C1CCCN(c2ncccn2)C1 (centres undefined)",
    "study-target": "Luciferin 4-monooxygenase (Photinus pyralis)",
    "inhibition / %": 20.5
  },
  {
    "compound": "Cc1ccc(Nc2nc(-c3sc(NC(=O)c4ccccc4)nc3C)cs2)cc1",
    "study-target": "Luciferin 4-monooxygenase (Photinus pyralis)",
    "inhibition / %": -23.6
  },
  {
    "compound": "Cc1cnc(NC(=O)c2ccccn2)s1",
    "study-target": "Luciferin 4-monooxygenase (Photinus pyralis)",
    "inhibition / %": 15.6
  },
  {
    "compound": "CCOC(=O)CNC(=O)c1nn(-c2cccc(OC)c2)c(=O)c2ccccc12",
    "study-target": "Luciferin 4-monooxygenase (Photinus pyralis)",
    "inhibition / %": -3.73
  },
  {
    "compound": "Cc1nc2ccc(C(=O)O)cc2[nH]1",
    "study-target": "Luciferin 4-monooxygenase (Photinus pyralis)",
    "inhibition / %": 4.87
  },
  {
    "compound": "O=C(Cc1ccccc1)N1CCN(S(=O)(=O)c2ccc([N+](=O)[O-])cc2)CC1",
    "study-target": "Luciferin 4-monooxygenase (Photinus pyralis)",
    "inhibition / %": -3.47
  },
  {
    "compound": "CC(C)Nc1ccc(-n2nc3ccccc3[n+]2[O-])cc1",
    "study-target": "Luciferin 4-monooxygenase (Photinus pyralis)",
    "inhibition / %": 44
  },
  {
    "compound": "CCOC(=O)N1CCN(Cc2nc3c(c(=O)n(C)c(=O)n3C)n2Cc2ccccc2)CC1",
    "study-target": "Luciferin 4-monooxygenase (Photinus pyralis)",
    "inhibition / %": -8.93
  },
  {
    "compound": "CC(C)c1nc2ccc(C(=O)O)cc2[nH]1",
    "study-target": "Luciferin 4-monooxygenase (Photinus pyralis)",
    "inhibition / %": 31.5
  },
  {
    "compound": "CN(C)c1ccc(-n2cccc2/C=N/n2cnnc2)cc1",
    "study-target": "Luciferin 4-monooxygenase (Photinus pyralis)",
    "inhibition / %": -11.7
  }
]

###

target: Luciferin 4-monooxygenase (Photinus pyralis); assay: firefly luciferase inhibitors, HSP90 counter-screen, confirmation, artefact control for HSP90 inhibitor project, biochemical, luminescence, triplicate (AID 1847); details: purified native firefly luciferase, at 5.9 µM, active compounds read high;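 also: 0% = DMSO with luciferase and 100% = wells lacking luciferase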
Hit rate of the full screen: of about 2,300 compounds, about 1,100 (48%) were called active. The set was probably picked from earlier hits. A selection follows.
measure-name: inhibition (%)

[
  {
    "compound": "Cn1c(-c2ccco2)nc2cc3ccccc3cc21",
    "reported": 51.4
  },
  {
    "compound": "CC(OC(=O)c1ccc2noc(-c3ccccc3)c2c1)C(N)=O (stereo unspecified)",
    "reported": -3.9
  },
  {
    "compound": "COc1cc(CNC2CCCCC2)c(Br)cc1OC1CCCC1",
    "reported": 1
  },
  {
    "compound": "COc1cc(SC)ccc1C(=O)Nc1nc(C)cs1",
    "reported": 90.1
  },
  {
    "compound": "Cc1cc(C(=O)COC(=O)C2CC2)c(C)n1-c1ccc(F)cc1",
    "reported": 88.4
  },
  {
    "compound": "COC(=O)c1sc(NC(=O)c2csc3c2CCCC3)nc1C",
    "reported": -24.8
  },
  {
    "compound": "CCS(=O)(=O)c1cc([N+](=O)[O-])c(Sc2ccccc2N)s1",
    "reported": 46
  },
  {
    "compound": "COC(=O)c1sc(NC(=O)c2ccc(OC)cc2OC)nc1C",
    "reported": 56.6
  },
  {
    "compound": "Cc1nnc(SCC(=O)N2c3ccccc3C(C)(c3ccc(Cl)cc3)CC2(C)C)s1 (stereo unspecified)",
    "reported": -1.27
  },
  {
    "compound": "Cc1ccc2nc(/C(C#N)=C\\c3ccc(OC(=O)c4cccs4)cc3)[nH]c2c1",
    "reported": -9.37
  },
  {
    "compound": "CCN(CCCNC(=O)c1ccc2c(c1)NC(=O)CN2C)c1cccc(C)c1",
    "reported": -5.03
  }
]

###

biological target: Luciferin 4-monooxygenase (Photinus pyralis) (UniProt P08659); test: firefly luciferase inhibitors, HSP90 counter-screen, confirmation, artefact control for HSP90 inhibitor project, biochemical, luminescence, triplicate (AID 1847); conditions: purified native firefly luciferase, at 5.9 µM, active compounds read high;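 also: 0% = DMSO with luciferase and 100% = wells lacking luciferase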
Sequence (P08659 whole entry, looked up): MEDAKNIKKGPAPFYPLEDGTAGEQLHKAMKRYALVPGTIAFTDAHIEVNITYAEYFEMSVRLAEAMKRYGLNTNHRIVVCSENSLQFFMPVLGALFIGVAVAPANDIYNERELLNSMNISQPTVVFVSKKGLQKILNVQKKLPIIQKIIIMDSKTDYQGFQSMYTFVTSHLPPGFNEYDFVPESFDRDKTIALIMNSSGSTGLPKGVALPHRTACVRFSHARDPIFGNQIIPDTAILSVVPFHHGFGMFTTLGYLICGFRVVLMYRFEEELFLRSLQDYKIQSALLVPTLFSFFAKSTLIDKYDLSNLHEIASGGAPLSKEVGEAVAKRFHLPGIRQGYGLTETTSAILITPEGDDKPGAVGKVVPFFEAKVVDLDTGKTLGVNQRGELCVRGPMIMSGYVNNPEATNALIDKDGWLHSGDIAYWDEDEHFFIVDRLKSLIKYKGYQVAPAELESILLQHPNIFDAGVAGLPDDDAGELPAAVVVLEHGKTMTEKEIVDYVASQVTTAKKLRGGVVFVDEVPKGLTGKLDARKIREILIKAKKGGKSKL
In all, about 2,300 compounds went through this assay and about 1,100 (48%) were called active. So high a share suggests a set chosen from earlier hits. A selection follows.
Reported inhibition values for the following compounds.
measure-name: inhibition (%)

[
  {
    "compound": "COc1cccc(/C=C/c2ccc3ccccc3n2)c1OC(C)=O",
    "study-target": "Luciferin 4-monooxygenase (Photinus pyralis) (UniProt P08659)",
    "measure-name": "inhibition",
    "reported": -12.7
  },
  {
    "compound": "O=C(Nc1cccnc1)c1noc2c1CCCCC2",
    "study-target": "Luciferin 4-monooxygenase (Photinus pyralis) (UniProt P08659)",
    "measure-name": "inhibition",
    "reported": 38.6
  },
  {
    "compound": "CC(C)(C)OC(=O)c1c(N)n(CCCN2CCCC2=O)c2nc3ccccc3nc12",
    "study-target": "Luciferin 4-monooxygenase (Photinus pyralis) (UniProt P08659)",
    "measure-name": "inhibition",
    "reported": -7.33
  },
  {
    "compound": "COc1ccc(C(=O)Nc2ccccc2C(=O)N/N=C/c2ccccc2OC)cc1",
    "study-target": "Luciferin 4-monooxygenase (Photinus pyralis) (UniProt P08659)",
    "measure-name": "inhibition",
    "reported": 43.8
  },
  {
    "compound": "CCc1nc(SCC(=O)Nc2ccccc2OC)n[nH]1",
    "study-target": "Luciferin 4-monooxygenase (Photinus pyralis) (UniProt P08659)",
    "measure-name": "inhibition",
    "reported": 0.13
  },
  {
    "compound": "Cc1ccc(Nc2nc(-c3ccc(O)cc3O)cs2)nc1",
    "study-target": "Luciferin 4-monooxygenase (Photinus pyralis) (UniProt P08659)",
    "measure-name": "inhibition",
    "reported": -25.8
  },
  {
    "compound": "COC(=O)C1[C@H]2SC(C)(C)C(C(=O)OC)N2C(=O)N1Cc1nc2ccccc2s1 (stereo partly specified)",
    "study-target": "Luciferin 4-monooxygenase (Photinus pyralis) (UniProt P08659)",
    "measure-name": "inhibition",
    "reported": -10.3
  },
  {
    "compound": "COc1ccc(/C=N/Nc2ccccc2C(=O)O)cc1",
    "study-target": "Luciferin 4-monooxygenase (Photinus pyralis) (UniProt P08659)",
    "measure-name": "inhibition",
    "reported": 23.4
  },
  {
    "compound": "CSCCC(C(=O)NC1=NCCS1)N1C(=O)c2ccccc2C1=O (stereo unspecified)",
    "study-target": "Luciferin 4-monooxygenase (Photinus pyralis) (UniProt P08659)",
    "measure-name": "inhibition",
    "reported": -8.47
  },
  {
    "compound": "COc1ccc(C(=O)Nc2ccccc2C(=O)N/N=C/c2ccc(O)c(OC)c2)cc1",
    "study-target": "Luciferin 4-monooxygenase (Photinus pyralis) (UniProt P08659)",
    "measure-name": "inhibition",
    "reported": 93.5
  },
  {
    "compound": "CCOC(=O)c1nc(C)n(-c2ccc(Cl)cc2Cl)n1",
    "study-target": "Luciferin 4-monooxygenase (Photinus pyralis) (UniProt P08659)",
    "measure-name": "inhibition",
    "reported": -5.2
  }
]

Values were extracted from PubChem BioAssay AID1847.
